measured_target: purified wild type MGL (wt-MGLL 6H-11-313) (Homo sapiens)
Sequence (Q99685 1-303): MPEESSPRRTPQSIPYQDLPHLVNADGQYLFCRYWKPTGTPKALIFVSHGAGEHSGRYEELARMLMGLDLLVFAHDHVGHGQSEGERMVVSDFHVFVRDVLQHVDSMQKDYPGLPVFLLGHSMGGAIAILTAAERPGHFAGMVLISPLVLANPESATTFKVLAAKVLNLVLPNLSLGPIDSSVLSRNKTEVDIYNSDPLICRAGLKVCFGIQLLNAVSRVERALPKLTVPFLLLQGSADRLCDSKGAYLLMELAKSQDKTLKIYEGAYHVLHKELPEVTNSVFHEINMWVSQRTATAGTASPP
In this section we review reported IC50 values for a set of compounds.

O=C(c1ccc2c(ccn2-c2ccc(F)cc2F)c1)N1CC(N2CCN(C(=O)c3nccs3)CC2)C1 [Cpd 1364] ... < 5 nM
O=C(c1nccs1)N1CCN(C2CN(C(=O)c3ccc(-c4cccc(C(F)(F)F)c4)cc3Cl)C2)CC1 [Cpd 250] ... < 5 nM
O=C(c1ccc2nn(-c3cccc(OC(F)(F)F)c3)cc2c1)N1CC(N2CCN(C(=O)c3nccs3)CC2)C1 [Cpd 1376] ... < 5 nM
O=C(c1ccc2c(ccn2-c2ccc(Cl)c(F)c2)c1)N1CC(N2CCN(C(=O)c3nccs3)CC2)C1 [Cpd 1372] ... < 5 nM
Cn1cc(-c2ccc(C(F)(F)F)cc2)c2ccc(C(=O)N3CC(N4CCN(C(=O)c5nccs5)CC4)C3)cc21 [Cpd 1347] ... < 5 nM
O=C(c1ccc2c(cnn2Cc2ccc(C(F)(F)F)cc2)c1)N1CC(N2CCN(C(=O)c3nccs3)CC2)C1 [Cpd 1036] ... < 5 nM
O=C(c1nccs1)N1CCN(C2CN(C(=O)c3sc4cc(C(F)(F)F)ccc4c3F)C2)CC1 [Cpd 895] ... < 5 nM
O=C(c1ccoc1)N1CCN(C2CN(C(=O)c3ccc(-c4ccccc4)cc3)C2)CC1 [Cpd 1140] ... 27 nM

Identify measured IC50 obtained with purified wild type MGL (wt-MGLL 6H-11-313) (Homo sapiens) for O=C(c1nccs1)N1CCN(C2CN(C(=O)c3sc4cc(C(F)(F)F)c(F)cc4c3Cl)C2)CC1 [Cpd 900] .
< 5 nM

Identify measured IC50 obtained with purified wild type MGL (wt-MGLL 6H-11-313) (Homo sapiens) for O=C(c1nccs1)N1CCN(C2CN(C(=O)c3cc(-c4ccccc4)ccc3Cl)C2)CC1 [Cpd 1200] .
151 nM

Identify measured IC50 obtained with purified wild type MGL (wt-MGLL 6H-11-313) (Homo sapiens) for O=C(c1ccc(-c2ccccc2)cc1)N1CC(N2CCN(C(=O)c3cscn3)CC2)C1 [Cpd 7] .
131 nM

Identify measured IC50 obtained with purified wild type MGL (wt-MGLL 6H-11-313) (Homo sapiens) for O=C(c1nccs1)N1CC(N2CCN(C(=O)c3nc4cc(Cl)ccc4s3)CC2)C1 [Cpd 764] .
636 nM

Identify measured IC50 obtained with purified wild type MGL (wt-MGLL 6H-11-313) (Homo sapiens) for O=C(c1ccc2c(c1)CCCN2C(=O)C1CCC1)N1CC(N2CCN(C(=O)c3nccs3)CC2)C1 [Cpd 364] .
210 nM
